# Target or test system: Mycobacterium tuberculosis protein tyrosine phosphatase B (MptpB) (Mycobacterium tuberculosis, UniProt I6WXK4)
# Construct: The full-length PTPB gene was amplified from genomic DNA of the Mtb H37Rv strain; His6 (N)
# Sequence (I6WXK4 whole entry, looked up): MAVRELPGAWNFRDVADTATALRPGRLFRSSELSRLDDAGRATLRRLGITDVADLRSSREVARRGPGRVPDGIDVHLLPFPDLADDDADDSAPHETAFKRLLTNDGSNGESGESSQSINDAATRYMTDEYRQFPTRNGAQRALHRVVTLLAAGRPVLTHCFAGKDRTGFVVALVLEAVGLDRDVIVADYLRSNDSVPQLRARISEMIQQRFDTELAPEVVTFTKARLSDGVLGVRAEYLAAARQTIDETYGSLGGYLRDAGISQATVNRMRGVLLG
# Protocol notes: MptpB inhibition assay (RediPlate 96 EnzChek Tyrosine Phosphatase Assay kit, DiFMUP hydrolysis)
# Particulars: […]; fluorogenic substrate DiFMUP; average of three independent experiments; read-out: IC50 against MptpB
Readout name: IC50 (µM)
Just the number please, in µM, no unit attached.

C/C=C/C1=CC2=CC(=O)[C@@](C)(OC(=O)c3c(C)cc(O)cc3O)C(=O)C2=CO1 [Compound 6, (−)-mitorubrin]; 3.99

Consider the record given below.
Which IC50 reading was recorded for the compound O=C1C2=C3C(=CC(=O)c4c(O)cc(O)cc43)OC2(O)Cc2cc(O)cc(O)c21 (racemic) [Compound 2, (±)-asperlone B] ?
4.32

###

Overview of recorded pIC50 for various compounds
# Target or test system: Mycobacterium tuberculosis protein tyrosine phosphatase B (MptpB) (Mycobacterium tuberculosis)
# Construct: The full-length PTPB gene was amplified from genomic DNA of the Mtb H37Rv strain; His6 (N)
# Protocol notes: MptpB inhibition assay (RediPlate 96 EnzChek Tyrosine Phosphatase Assay kit, DiFMUP hydrolysis)
# Particulars: […]; fluorogenic substrate DiFMUP; average of three independent experiments; read-out: IC50 against MptpB
Field pIC50 (float): negative decimal logarithm of the concentration in molar.

O=C1C2=C3C(=CC(=O)c4c(O)cccc43)OC2(O)Cc2cc(O)cc(O)c21 (racemic) [Compound 1, (±)-asperlone A]; 5.37

Consider the record given below.
Which pIC50 reading was recorded for the compound [Na+].[Na+].[Na+].[O]=[V]([O-])([O-])[O-] [Positive Control, sodium orthovanadate, reference compound] ?
7.30
